Entries and their Cmax
Assay: Cmax in BALBc mouse at 30 mg/kg, po measured for 24 hrs by LC-MS/MS analysis
Assay type: ADME, organism-based
Set-up: dose 30 mg/kg, route oral
Conditions: in vivo
Property Label: Cmax

- Smiles Text: "Cc1c(N2CCN(C)[C@@H](C)C2)ccc2c3c(c(=O)oc12)CN(C(=O)c1ccc(NS(C)(=O)=O)c(OC(F)(F)F)c1)CC3"
  Result: "56500 ng/mL"
- Smiles Text: "Cc1c(N2CCN(C)CC2)ccc2c3c(c(=O)oc12)CN(C(=O)c1ccc(NS(C)(=O)=O)c(Cl)c1)CC3"
  Result: "12700 ng/mL"
